# test-target: human α9α10 nAChR (Homo sapiens, UniProt Q9GZZ6+Q9UGM1)
# Sequence (Q9UGM1 26-479 limits assumed): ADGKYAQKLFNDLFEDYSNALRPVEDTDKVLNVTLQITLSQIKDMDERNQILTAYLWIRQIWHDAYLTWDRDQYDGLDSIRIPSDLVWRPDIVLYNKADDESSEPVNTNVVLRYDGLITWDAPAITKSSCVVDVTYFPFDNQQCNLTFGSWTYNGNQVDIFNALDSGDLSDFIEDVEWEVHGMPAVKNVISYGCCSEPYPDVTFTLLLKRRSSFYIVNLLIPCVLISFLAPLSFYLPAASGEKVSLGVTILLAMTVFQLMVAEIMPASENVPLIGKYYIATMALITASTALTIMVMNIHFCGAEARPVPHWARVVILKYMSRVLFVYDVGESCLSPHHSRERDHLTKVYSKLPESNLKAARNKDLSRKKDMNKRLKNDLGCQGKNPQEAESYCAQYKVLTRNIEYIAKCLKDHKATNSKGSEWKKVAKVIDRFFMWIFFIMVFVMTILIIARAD
# Sequence (Q9GZZ6 25-450 limits assumed): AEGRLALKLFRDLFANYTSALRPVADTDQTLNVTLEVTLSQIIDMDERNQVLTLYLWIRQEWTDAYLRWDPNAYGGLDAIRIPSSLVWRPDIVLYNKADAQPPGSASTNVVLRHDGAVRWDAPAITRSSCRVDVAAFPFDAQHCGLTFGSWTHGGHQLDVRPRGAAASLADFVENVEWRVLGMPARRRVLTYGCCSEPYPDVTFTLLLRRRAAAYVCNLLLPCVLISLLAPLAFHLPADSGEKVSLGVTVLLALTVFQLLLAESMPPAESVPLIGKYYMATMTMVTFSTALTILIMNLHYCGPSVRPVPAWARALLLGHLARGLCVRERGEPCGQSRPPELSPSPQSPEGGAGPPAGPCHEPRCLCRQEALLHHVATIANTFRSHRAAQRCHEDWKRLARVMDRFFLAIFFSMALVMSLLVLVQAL
# assay-info: cell-based
# Format: cell-based
Each item that follows carries a reported Fold improvement.
outcome-measure: Fold improvement (fold)

{"molecule": "C[C@@H](O)[C@@H]1NC(=O)[C@@H]2CSSC[C@@H](C(=O)N[C@@H](Cc3ccc(O)cc3)C(=O)N[C@@H](Cc3ccc(O)cc3)C(=O)O)NC(=O)[C@H](CCC(N)=O)NC(=O)[C@H](Cc3ccc(O)c(I)c3)NC(=O)[C@H](CCCNC(N)=O)NC(=O)[C@H](CSSC[C@H](NC(=O)CN)C(=O)N2)NC(=O)[C@H](CCCNC(=N)N)NC(=O)[C@@H]2CCCN2C(=O)[C@H](CC(=O)O)NC1=O [Analog 9]", "test-target": "human α9α10 nAChR (Homo sapiens, UniProt Q9GZZ6+Q9UGM1)", "outcome-measure": "Fold improvement", "value": 553}
{"molecule": "C[C@@H](O)[C@@H]1NC(=O)[C@@H]2CSSC[C@@H](C(=O)N[C@@H](Cc3c[nH]c4ccccc34)C(=O)O)NC(=O)[C@H](CCC(N)=O)NC(=O)[C@H](Cc3ccc(O)c(I)c3)NC(=O)[C@H](CCCNC(N)=O)NC(=O)[C@H](CSSC[C@H](NC(=O)CN)C(=O)N2)NC(=O)[C@H](CCCNC(=N)N)NC(=O)[C@@H]2CCCN2C(=O)[C@H](CC(=O)O)NC1=O [Analog 8]", "test-target": "human α9α10 nAChR (Homo sapiens, UniProt Q9GZZ6+Q9UGM1)", "outcome-measure": "Fold improvement", "value": 236}

====

# test-target: human α9α10 nAChR (Homo sapiens, UniProt Q9GZZ6+Q9UGM1)
# assay-info: cell-based
# Assay type: cell-based
Each item that follows carries a reported Fold improvement.
outcome-measure: Fold improvement (fold)

{"record-smiles": "C[C@@H](O)[C@@H]1NC(=O)[C@@H]2CSSC[C@@H](C(=O)N[C@@H](CCCNC(=N)N)C(=O)N[C@@H](CCCNC(=N)N)C(=O)N[C@@H](CCCNC(=N)N)C(=O)O)NC(=O)[C@H](CCC(N)=O)NC(=O)[C@H](Cc3ccc(O)c(I)c3)NC(=O)[C@H](CCCNC(N)=O)NC(=O)[C@H](CSSC[C@H](NC(=O)CN)C(=O)N2)NC(=O)[C@H](CCCNC(=N)N)NC(=O)[C@@H]2CCCN2C(=O)[C@H](CC(=O)O)NC1=O", "value": 109}
{"record-smiles": "C[C@@H](O)[C@@H]1NC(=O)[C@@H]2CSSC[C@@H](C(=O)N[C@@H](CCCNC(=N)N)C(=O)N[C@@H](CCCNC(=N)N)C(=O)N[C@@H](Cc3ccc(O)cc3)C(=O)O)NC(=O)[C@H](CCC(N)=O)NC(=O)[C@H](Cc3ccc(O)c(I)c3)NC(=O)[C@H](CCCNC(N)=O)NC(=O)[C@H](CSSC[C@H](NC(=O)CN)C(=O)N2)NC(=O)[C@H](CCCNC(=N)N)NC(=O)[C@@H]2CCCN2C(=O)[C@H](CC(=O)O)NC1=O", "value": 120}
{"record-smiles": "C[C@@H](O)[C@@H]1NC(=O)[C@@H]2CSSC[C@@H](C(=O)N[C@@H](Cc3ccc(O)cc3)C(=O)N[C@@H](CCCNC(=N)N)C(=O)N[C@@H](CCCNC(=N)N)C(=O)O)NC(=O)[C@H](CCC(N)=O)NC(=O)[C@H](Cc3ccc(O)c(I)c3)NC(=O)[C@H](CCCNC(N)=O)NC(=O)[C@H](CSSC[C@H](NC(=O)CN)C(=O)N2)NC(=O)[C@H](CCCNC(=N)N)NC(=O)[C@@H]2CCCN2C(=O)[C@H](CC(=O)O)NC1=O", "value": 325}

====

# test-target: human α9α10 nAChR (Homo sapiens, UniProt Q9GZZ6+Q9UGM1)
# assay-info: cell-based
pIC50: −log10 of the molar value.
Each item that follows carries a reported pIC50.

{"record-smiles": "C[C@@H](O)[C@@H]1NC(=O)[C@@H]2CSSC[C@@H](C(=O)N[C@@H](Cc3ccc(O)cc3)C(=O)N[C@@H](CCCNC(=N)N)C(=O)N[C@@H](CCCNC(=N)N)C(=O)O)NC(=O)[C@H](CCC(N)=O)NC(=O)[C@H](Cc3ccc(O)c(I)c3)NC(=O)[C@H](CCCNC(N)=O)NC(=O)[C@H](CSSC[C@H](NC(=O)CN)C(=O)N2)NC(=O)[C@H](CCCNC(=N)N)NC(=O)[C@@H]2CCCN2C(=O)[C@H](CC(=O)O)NC1=O", "pIC50": 8.82}
{"record-smiles": "C[C@@H](O)[C@@H]1NC(=O)[C@@H]2CSSC[C@@H](C(=O)N[C@@H](CCCNC(=N)N)C(=O)N[C@@H](CCCNC(=N)N)C(=O)N[C@@H](Cc3ccc(O)cc3)C(=O)O)NC(=O)[C@H](CCC(N)=O)NC(=O)[C@H](Cc3ccc(O)c(I)c3)NC(=O)[C@H](CCCNC(N)=O)NC(=O)[C@H](CSSC[C@H](NC(=O)CN)C(=O)N2)NC(=O)[C@H](CCCNC(=N)N)NC(=O)[C@@H]2CCCN2C(=O)[C@H](CC(=O)O)NC1=O", "pIC50": 8.39}
{"record-smiles": "C[C@@H](O)[C@@H]1NC(=O)[C@@H]2CSSC[C@@H](C(=O)N[C@@H](CCCNC(=N)N)C(=O)N[C@@H](CCCNC(=N)N)C(=O)N[C@@H](CCCNC(=N)N)C(=O)O)NC(=O)[C@H](CCC(N)=O)NC(=O)[C@H](Cc3ccc(O)c(I)c3)NC(=O)[C@H](CCCNC(N)=O)NC(=O)[C@H](CSSC[C@H](NC(=O)CN)C(=O)N2)NC(=O)[C@H](CCCNC(=N)N)NC(=O)[C@@H]2CCCN2C(=O)[C@H](CC(=O)O)NC1=O", "pIC50": 8.34}

====

# test-target: human α9α10 nAChR (Homo sapiens, UniProt Q9GZZ6+Q9UGM1)
# assay-info: cell-based

{"record-smiles": "C[C@@H](O)[C@@H]1NC(=O)[C@@H]2CSSC[C@@H](C(=O)N[C@@H](Cc3ccc(O)cc3)C(=O)N[C@@H](CCCNC(=N)N)C(=O)O)NC(=O)[C@H](CCC(N)=O)NC(=O)[C@H](Cc3ccc(O)c(I)c3)NC(=O)[C@H](CCCNC(N)=O)NC(=O)[C@H](CSSC[C@H](NC(=O)CN)C(=O)N2)NC(=O)[C@H](CCCNC(=N)N)NC(=O)[C@@H]2CCCN2C(=O)[C@H](CC(=O)O)NC1=O", "unit": "nM", "IC50": 0.826}

====

# test-target: human α9α10 nAChR (Homo sapiens, UniProt Q9GZZ6+Q9UGM1)
# assay-info: cell-based
# Type: cell-based

{"compound": "C[C@@H](O)[C@@H]1NC(=O)[C@@H]2C[Se]SC[C@@H](C(=O)N[C@@H](CCCNC(=N)N)C(=O)O)NC(=O)[C@H](CCC(N)=O)NC(=O)[C@H](Cc3ccc(O)c(I)c3)NC(=O)[C@H](CCCNC(N)=O)NC(=O)[C@H](CS[Se]C[C@H](NC(=O)CN)C(=O)N2)NC(=O)[C@H](CCCNC(=N)N)NC(=O)[C@@H]2CCCN2C(=O)[C@H](CC(=O)O)NC1=O [SEQ ID NO:20, GX4X4TDPRCX2X3QCR]", "test-target": "human α9α10 nAChR (Homo sapiens, UniProt Q9GZZ6+Q9UGM1)", "Fold improvement": "5.7 fold"}
